# IC50 per record follows
Test system: NCI-H460
Assay: Antiproliferative activity against human NCI-H460 cells
Format: functional, cell-based
Square brackets hold non-standard residues; d marks the D form. Peptide text beside a SMILES is read from it. * marks the point of attachment. ξ: configuration not given here. Nva(5-pentanoyl) = CCCCC(=O)CCC[C@H](N)C(=O)O; NH((S)CH(Me)CH2NHC2H4OH) = C[C@@H](CNCCO)N*; Gly(octyl) = CCCCCCCC[C@H](N)C(=O)O; X3 = C[C@H](NC[C@H](C)N*)C(=O)O; Aib = CC(C)(N)C(=O)O; Butyryl = CCCC(=O)*; ξP = O=C(O)C1CCCN1; βAla = NCCC(=O)O

Example entries and their recorded answers appear below.
[[record]]
compound = "CCCCCCCC[C@H](NC(=O)C(C)(C)NC(=O)C(C)(C)NC(=O)[C@H](CCCC(=O)CCCC)NC(=O)C1CCCN1C(=O)CCC)C(=O)N[C@@H](CC(C)C)C(=O)NC(C)(C)C(=O)N[C@@H](CC(C)C)C(=O)NCCC(=O)N[C@@H](C)CN[C@@H](C)C(=O)O (stereo partly drawn) (Butyryl-[ξP][Nva(5-pentanoyl)][Aib][Aib][Gly(octyl)]L[Aib]L[βAla]-X3)"
readoutlabel = "IC50"
testvalue = "291 nM"

[[record]]
compound = "CCCCCCCC[C@H](NC(=O)[C@H](C)NC(=O)C(C)(C)NC(=O)[C@H](CCCC(=O)CCCC)NC(=O)C1CCCN1C(=O)CCC)C(=O)N[C@@H](CC(C)C)C(=O)NC(C)(C)C(=O)N[C@@H](CC(C)C)C(=O)NCCC(=O)N[C@@H](C)CNCCO (stereo partly drawn) (Butyryl-[ξP][Nva(5-pentanoyl)][Aib]A[Gly(octyl)]L[Aib]L[βAla]-{NH((S)CH(Me)CH2NHC2H4OH)})"
readoutlabel = "IC50"
testvalue = "20 nM"


As a next step, examine the compound that follows.
Lookup: // returns reported IC50 for input CCCCCCCC[C@H](NC(=O)C(C)(C)NC(=O)C(C)(C)NC(=O)[C@H](CCC(=O)O)NC(=O)[C@@H]1CCCN1C(=O)CCC)C(=O)N[C@@H](CC(C)C)C(=O)NC(C)(C)C(=O)N[C@@H](CC(C)C)C(=O)NCCC(=O)N[C@@H](C)CNCCO (Butyryl-PE[Aib][Aib][Gly(octyl)]L[Aib]L[βAla]-{NH((S)CH(Me)CH2NHC2H4OH)})
Found: > 10000 nM

###

Tested on: NCI-H460
Assay: Antiproliferative activity against human NCI-H460 cells
Assay type: functional, cell-based
Numbered stars: 1 amine (or outer) side, 2 acyl side, 3 side chain; on linkers, the order of the positions; unused ones are H or OH. Square brackets hold non-standard residues; d marks the D form. Peptide text beside a SMILES is read from it. * marks the point of attachment. X1 = CCC(=O)C[C@H](O)C[C@@H](C)C[C@H](N[*:1])C(=O)[*:2]; Gly(1-adamantyl) = N[C@H](C(=O)O)C12CC3CC(CC(C3)C1)C2; Nva(5-pentanoyl) = CCCCC(=O)CCC[C@H](N)C(=O)O; NH((S)CH(Me)CH2NHC2H4OH) = C[C@@H](CNCCO)N*; Gly(octyl) = CCCCCCCC[C@H](N)C(=O)O; Cha = N[C@@H](CC1CCCCC1)C(=O)O; Nle = CCCC[C@H](N)C(=O)O; Aib = CC(C)(N)C(=O)O; Butyryl = CCCC(=O)*; βAla = NCCC(=O)O
Please map values of IC50 to classes as shown: low: < 20 nM; moderate: ≥ 20 nM and < 90 nM; high: ≥ 90 nM

Some solved cases for reference:
[[record]]
compound = "CCCCCCCC[C@H](NC(=O)C(C)(C)NC(=O)C(C)(C)NC(=O)[C@H](CCCC(=O)CCCC)NC(=O)[C@H](C)N)C(=O)N[C@@H](CC(C)C)C(=O)NC(C)(C)C(=O)N[C@@H](CC(C)C)C(=O)NCCC(=O)N[C@@H](C)CNCCO (H-A[Nva(5-pentanoyl)][Aib][Aib][Gly(octyl)]L[Aib]L[βAla]-{NH((S)CH(Me)CH2NHC2H4OH)})"
grouplabel = "low"

[[record]]
compound = "CCCCCCCC[C@H](NC(=O)C(C)(C)NC(=O)C(C)(C)NC(=O)[C@H](CC1CCCCC1)NC(=O)[C@@H]1CCCN1C(=O)CCC)C(=O)N[C@@H](CC(C)C)C(=O)NC(C)(C)C(=O)N[C@@H](CC(C)C)C(=O)NCCC(=O)N[C@@H](C)CNCCO (Butyryl-P[Cha][Aib][Aib][Gly(octyl)]L[Aib]L[βAla]-{NH((S)CH(Me)CH2NHC2H4OH)})"
grouplabel = "low"

[[record]]
compound = "CCCC[C@H](NC(=O)C(C)(C)NC(=O)C(C)(C)NC(=O)[C@H](C[C@H](C)C[C@@H](O)CC(=O)CC)NC(=O)[C@@H]1CCCN1C(=O)CCC)C(=O)N[C@@H](CC(C)C)C(=O)NC(C)(C)C(=O)N[C@@H](CC(C)C)C(=O)NCCC(=O)N[C@@H](C)CNCCO (Butyryl-P[X1][Aib][Aib][Nle]L[Aib]L[βAla]-{NH((S)CH(Me)CH2NHC2H4OH)})"
grouplabel = "high"


--- query ---
Lookup: Place this compound in its band: CCCCCCCC[C@H](NC(=O)C(C)(C)NC(=O)C(C)(C)NC(=O)[C@@H](NC(=O)[C@@H]1CCCN1C(=O)CCC)C12CC3CC(CC(C3)C1)C2)C(=O)N[C@@H](CC(C)C)C(=O)NC(C)(C)C(=O)N[C@@H](CC(C)C)C(=O)NCCC(=O)N[C@@H](C)CNCCO (Butyryl-P[Gly(1-adamantyl)][Aib][Aib][Gly(octyl)]L[Aib]L[βAla]-{NH((S)CH(Me)CH2NHC2H4OH)})
Found: low
